All values here come from ChEMBL document CHEMBL5244232.

# system: 11-beta-hydroxysteroid dehydrogenase 1 (Homo sapiens)
# assay_procedure: Inhibition of human 11beta-HSD1
readout: IC50 (nM)
# number only, unit nM dropped from output

smiles_entry: O=S(=O)(c1ccccc1)N1CCN(c2ncccc2C(F)(F)F)CC1
IC50, nM: 61

Attention now shifts to the item below.
Which IC50 reading was recorded for the compound C[C@@H]1CN(c2ccc(F)cc2C(F)(F)F)CCN1S(=O)(=O)c1cccc([C@@](C)(O)C(F)(F)F)c1 ?
11

====

// values below are reported pIC50
# system: 11-beta-hydroxysteroid dehydrogenase 1 (Mus musculus, UniProt P50172)
# Sequence (P50172 whole entry): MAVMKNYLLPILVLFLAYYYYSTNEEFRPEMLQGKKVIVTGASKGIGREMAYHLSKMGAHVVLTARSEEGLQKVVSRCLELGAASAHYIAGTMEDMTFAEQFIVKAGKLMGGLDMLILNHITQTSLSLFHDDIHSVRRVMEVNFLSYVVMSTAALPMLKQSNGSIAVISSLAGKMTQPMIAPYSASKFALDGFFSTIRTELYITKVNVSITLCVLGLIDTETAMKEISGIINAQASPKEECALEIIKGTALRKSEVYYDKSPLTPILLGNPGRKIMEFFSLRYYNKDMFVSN
# assay_procedure: Inhibition of mouse 11beta-HSD1 expressed in CHO-K1 cells incubated for 3 hrs by HTRF assay
# Type: cell-based
Just so you know, pIC50 here is -log10 of the concentration in molar units; reply with that number alone.

compound: O=C(NC12CC3CC(CC(C3)C1)C2)C1NCCS1 (configuration not stated)
pIC50: 5.67

Please look at the following compound next.
Can you look up the measured pIC50 of NC(=O)C12CC3CC(CC(NC(=O)C4SCCN4S(=O)(=O)c4ccccc4F)(C3)C1)C2 (configuration not stated) for me?
8.28

====

# system: 11-beta-hydroxysteroid dehydrogenase 1 (Mus musculus)
# assay_procedure: Inhibition of mouse 11beta-HSD1 incubated for 24 hrs by HTRF assay
readout: pIC50
Expect pIC50 as a plain number equal to -log10 of the molar concentration.

// query pIC50 value for entry O=C(CN1C(C(=O)c2ccccc2)=C(O)c2ccccc2S1(=O)=O)c1ccccc1
6.68

====

# system: UniProtKB P50172
# assay_procedure: Inhibition of mouse 11beta-HSD1
readout: IC50

Missing value: IC50, UniProtKB P50172, entry C[C@@H](c1ccc(-c2ccn(C)c(=O)c2)cc1)N1CC[C@](CC(C)(C)O)(c2ccccc2)OC1=O . Fill in?
4.3 nM

====

# system: UniProtKB P16232
# assay_procedure: Inhibition of rat 11beta-HSD1 in kidney microsomes incubated for 20 mins by HPLC analysis
# Parameters: species or system Microsome
readout: IC50 (µM)
Report only the number, with the unit µM understood.

Given Oc1ccc(/C=C/c2cc(O)cc(O)c2)cc1 [RESVERATROL] , state its recorded IC50.
35.2

====

# system: 11-beta-hydroxysteroid dehydrogenase 1 (Mus musculus, UniProt P50172)
# assay_procedure: Inhibition of mouse 11beta-HSD1 in liver microsome incubated for 24 hrs by LC-MS analysis
# Format: microsomes
readout: pIC50
API: returns pIC50 as number; meaning -log10 of concentration in mol/L.

Reported pIC50 for CN(CC1(C(=O)NC23CC4CC(C2)CC(C(N)=O)(C4)C3)CC1)S(=O)(=O)c1ccccc1F : what is it?
8.55

====

# system: 11-beta-hydroxysteroid dehydrogenase 1 (Homo sapiens)
# assay_procedure: Inhibition of human 11beta-HSD1 incubated for 30 mins by HPLC-MS/MS analysis
readout: IC50 (µM)
Quick note: give the figure in µM, leave out the unit.

# returns recorded IC50 (system: 11-beta-hydroxysteroid dehydrogenase 1 (Homo sapiens)) for CC1=C2[C@H](C)[C@@H](C)O[C@]23O[C@H](C)[C@@H](C)O[C@@]3(O)CC1=O
9.07

====

# system: 11-beta-hydroxysteroid dehydrogenase type 2 (Homo sapiens)
# Sequence (P80365 whole entry): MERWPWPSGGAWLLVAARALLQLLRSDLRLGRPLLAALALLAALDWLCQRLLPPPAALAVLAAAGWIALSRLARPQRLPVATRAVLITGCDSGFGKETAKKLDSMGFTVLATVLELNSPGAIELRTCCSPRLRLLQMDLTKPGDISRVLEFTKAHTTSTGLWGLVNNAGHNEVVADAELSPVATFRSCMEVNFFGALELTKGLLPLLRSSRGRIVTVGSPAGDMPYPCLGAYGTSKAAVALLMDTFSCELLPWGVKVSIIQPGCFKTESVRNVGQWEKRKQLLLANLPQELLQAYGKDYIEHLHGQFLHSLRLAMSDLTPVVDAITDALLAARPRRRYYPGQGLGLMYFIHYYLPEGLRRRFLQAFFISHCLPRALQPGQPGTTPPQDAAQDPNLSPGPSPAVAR
readout: pIC50
FYI, pIC50 means -log10 of a concentration in mol per litre.

Give the measured pIC50 of O=C(O[C@@H]1Cc2c(O)cc(O)cc2O[C@@H]1c1cc(O)c(O)c(O)c1)c1cc(O)c(O)c(O)c1 [EPIGALOCATECHIN GALLATE] .
4.68

====

# system: UniProt:P50172
# assay_procedure: Inhibition of mouse 11beta-HSD1 expressed in CHO-K1 cells incubated for 24 hrs by HTRF assay
# Format: cell-based
readout: IC50 (pM)
The reply should contain only the number, in pM.

Would you kindly share the measured IC50 for NC(=O)C12CC3CC(CC(NC(=O)CN4CCCN(c5c(Cl)cc(Cl)cc5Cl)S4(=O)=O)(C3)C1)C2 ?
400

====

# assay_procedure: Inhibition of rat 11beta-HSD2 expressed in Leydig cells
# Assay type: cell-based
pIC50: −log10 of the molar value.
readout: pIC50

Entry under review: O=C1/C(=C\c2ccccc2C(F)(F)F)CCC/C1=C\c1ccccc1C(F)(F)F . Reported pIC50?
< 4.00

====

# system: 11-beta-hydroxysteroid dehydrogenase 1 (Homo sapiens, UniProt P28845)
# Sequence (P28845 whole entry): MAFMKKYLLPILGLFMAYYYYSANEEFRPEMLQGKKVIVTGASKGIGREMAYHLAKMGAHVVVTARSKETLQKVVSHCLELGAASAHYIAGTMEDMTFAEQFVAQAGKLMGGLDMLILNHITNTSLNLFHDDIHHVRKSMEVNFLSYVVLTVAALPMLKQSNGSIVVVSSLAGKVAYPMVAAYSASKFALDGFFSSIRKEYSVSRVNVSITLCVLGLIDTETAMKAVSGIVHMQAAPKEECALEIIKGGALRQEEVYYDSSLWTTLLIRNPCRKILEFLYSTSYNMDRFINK
# assay_procedure: Inhibition of human 11beta-HSD1 in liver microsome incubated for 24 hrs by LC-MS analysis
# Format: microsomes
readout: IC50 (nM)
# output: bare number, implied unit nM

Record request: IC50 value, item CN(CC1(C(=O)NC23CC4CC(C2)CC(C(N)=O)(C4)C3)CC1)S(=O)(=O)c1ccccc1F
0.02

====

# system: 11-beta-hydroxysteroid dehydrogenase 1 (Rattus norvegicus, UniProt P16232)
# Sequence (P16232 whole entry): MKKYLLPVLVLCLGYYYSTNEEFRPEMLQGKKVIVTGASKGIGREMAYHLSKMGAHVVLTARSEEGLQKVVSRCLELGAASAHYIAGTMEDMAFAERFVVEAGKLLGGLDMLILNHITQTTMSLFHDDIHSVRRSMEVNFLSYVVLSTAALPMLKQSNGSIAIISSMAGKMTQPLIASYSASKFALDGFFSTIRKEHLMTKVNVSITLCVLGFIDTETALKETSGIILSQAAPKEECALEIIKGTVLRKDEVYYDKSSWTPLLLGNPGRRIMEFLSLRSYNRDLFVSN
# assay_procedure: Inhibition of rat 11beta-HSD1
readout: pIC50
Please note pIC50 is a logarithmic value: minus log10 of concentration in mol/L. Answer with that number alone.

pIC50 for C[C@@H]1CN(c2ccc(F)cc2C(F)(F)F)CCN1S(=O)(=O)c1cccc([C@@](C)(O)C(F)(F)F)c1 ?
8.10
